# System name: T1, human α-CGRP 1-37 (WT) (human, C-terminal amide; N-terminal biotin when captured on the SA chip; 125I-labelled in the radioligand assay)
# T1 construct: also called α-human
# T1 peptide: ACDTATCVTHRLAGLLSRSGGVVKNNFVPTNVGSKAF
# Procedure summary: Biacore, 37°C, Fab over CGRP on SA chip
# pKd annotations
pKd is defined as minus the log10 of a concentration measured in mol/L.

Prompt line: Please look up its pKd: G1 variant M67 Fab (Fab, V domains shown, Fab; constant domains as m1; printed L561 read as L56I) VH: EVQLVESGGGLVQPGGSLRLSCAASGFTFSNYWISWVRQAPGKGLEWVAEIRSKSDFSATHYAEAVKGRFTISRDNAKNSLYLQMNSLRAEDTAVYYCTVYFDYGLAIQNYWGQGTLVTVSS VL: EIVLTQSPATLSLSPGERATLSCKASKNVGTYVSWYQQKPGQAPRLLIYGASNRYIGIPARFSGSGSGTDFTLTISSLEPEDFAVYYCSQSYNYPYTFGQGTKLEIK
Response line: 8.29

Prompt line: Please look up its pKd: G1 variant M74 Fab (Fab, V domains shown, Fab; constant domains as m1) VH: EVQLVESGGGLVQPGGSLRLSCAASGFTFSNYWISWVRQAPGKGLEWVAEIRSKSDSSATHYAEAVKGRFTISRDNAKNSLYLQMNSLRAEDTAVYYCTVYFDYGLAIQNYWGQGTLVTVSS VL: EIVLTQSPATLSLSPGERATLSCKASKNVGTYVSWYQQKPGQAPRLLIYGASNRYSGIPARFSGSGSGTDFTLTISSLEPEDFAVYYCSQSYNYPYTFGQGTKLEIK
Response line: 8.43

src = patent US20190071490A1
